Provenance of the data: patent US20060069132A1

System: large crabgrass
assay_summary: Test C pre-/postemergence herbicide test
Assay type: in vivo, Digitaria sanguinalis
test_settings: 250 g ai/ha; scale 0 to 100 (0 no effect, 100 complete control); visual, 12 to 14 days; preemergence

compound_structure	Plant response rating, Crabgrass, Large
CCc1nn(C(C)(C)C)cc1C(=O)Nc1cccc(C(C)=NO)c1	95
CCn1nc(C(C)(C)C)cc1C(=O)Nc1cccc(S(=O)(=O)C(F)(F)F)c1	95
CCn1nc(C(C)(C)C)cc1C(=O)Nc1cccc(C(C)=NO)c1	100
CCN(CC)C(=O)c1cccc(NC(=O)c2cc(C(C)(C)C)nn2CC)n1	80
CCn1nc(C(C)(C)C)cc1C(=O)Nc1cccc(C#N)c1	100
CCn1nc(C(C)(C)C)cc1C(=O)Nc1cc(C#N)ccc1F	75
